Target: T1, fragment DIR-II (last 27 amino acids of the sequence encoded by the retained intron of DIR) (human)
T1 construct: also called target fragment DIR-II
T1 peptide: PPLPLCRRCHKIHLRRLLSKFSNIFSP
Experiment: ELISA, DIR-II coated; mAb (1 mg/mL) diluted 1:486k
measurement_name: absorbance at 450 nm

Worked examples, 3 binders total:
binder	measurement_name	observed_measurement
DIR antibody IR-II-4 (antibody, V domains shown, Monoclonal antibody) VH: QVQLQQSGAELMKPGASVKISCKATGYTFSSYWIEWVKQRPGHGLEWIGEILPGSGSTNYNEKFKGKATFTADTSSNTAYMQLNSLTSEDSAVYYCARTDDGYLSYFAMDYWGQGTSVTVSS VL: DILMTQTPASLAVSLGQRATISCKASQSVDYDGDSYMNWYQQKPGQPPKLLIYAASNLESGIPARFSGSGSGTDFTLNIHPVEEEDAATYYCQQSNEDPRTFGGGTKLEIK	absorbance at 450 nm	0.0955 absorbance (450 nm)
DIR antibody IR-II-10 (A2D10) (antibody, V domains shown, Monoclonal antibody) VH: EVQLQQSGPELVKPGASVKISCKTSGYTFTEYTMHWVKQSHGKSLEWIGGIYPHNGGTNYNQKFKGKATLTVDKSSSTAYMELRSLTSEDSAVYYCTEDLTFDYWGQGTTLTVSS VL: DIQMTQTTSSLSASLGDRVTISCSASQDISNYLNWYQQKPDGTVKLLIYYTSSLHSGVPSRFSGSGSGTDYSLTISNLEPEDIATYHCLQYSKLPFTFGSGTKLEIK	absorbance at 450 nm	0.0517 absorbance (450 nm)
DIR antibody IR-II-6 (antibody, V domains shown, Monoclonal antibody; also called detection antibody) VH: QVQLQQSGAELMKPGASVKISCKATGYTFSRYWIEWIKQRPGHGLEWIGEILPGSYYSTNSNEKFKGKATFTADTSSNTAYMQLSSLTSEDSAVYYCARSGVITTRGDYFAMDYWGHGTSVTVSS VL: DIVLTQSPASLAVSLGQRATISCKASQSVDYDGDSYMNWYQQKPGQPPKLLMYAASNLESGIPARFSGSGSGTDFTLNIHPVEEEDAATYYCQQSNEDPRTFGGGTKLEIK	absorbance at 450 nm	0.306 absorbance (450 nm)

Now look at this one.
Query :: Form field: reported absorbance at 450 nm of DIR antibody IR-II-9 (antibody, V domains shown, Monoclonal antibody) VH: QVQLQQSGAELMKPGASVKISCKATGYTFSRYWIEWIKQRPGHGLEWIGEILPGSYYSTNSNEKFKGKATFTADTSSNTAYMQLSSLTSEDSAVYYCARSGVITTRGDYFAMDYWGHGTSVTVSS VL: DIELTQSPASLAVSLGQRATISCKASQSVDYDGESYMNWYQQKPGQPPKLLIYAASNLESGIPARFSGSGSGTDFTLNIHPVEEEDAATYYCQQSYDDPRAFGGGTKLEIK
Result :: 0.207 absorbance (450 nm)
